Molecular target: DC-SIGNR CRD (Homo sapiens, UniProt Q9H2X3)
Sequence (Q9H2X3 262-399): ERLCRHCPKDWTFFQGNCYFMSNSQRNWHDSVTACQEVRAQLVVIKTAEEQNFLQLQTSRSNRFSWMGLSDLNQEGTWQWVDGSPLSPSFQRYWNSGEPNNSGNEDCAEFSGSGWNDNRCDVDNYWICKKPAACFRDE
test readout: Kd (µM)
Please reply with the bare figure in µM and do not write the unit itself.

molecule	Kd (µM)
OC[C@H]1O[C@H](OC[C@H]2OC(O)[C@@H](O)[C@@H](O[C@H]3O[C@H](CO)[C@@H](O)[C@H](O)[C@@H]3O)[C@@H]2O)[C@@H](O)[C@@H](O)[C@@H]1O (some centres unmarked) [Man3]	2040

Attention now turns to another entry.
[Q] Give Kd for the following molecule: OC[C@H]1O[C@H](OC[C@H]2O[C@H](OC[C@H]3OC(O)[C@@H](O)[C@@H](O[C@H]4O[C@H](CO)[C@@H](O)[C@H](O)[C@@H]4O)[C@@H]3O)[C@@H](O)[C@@H](O[C@H]3O[C@H](CO)[C@@H](O)[C@H](O)[C@@H]3O)[C@@H]2O)[C@@H](O)[C@@H](O)[C@@H]1O (some centres unmarked) [Man5]
[A] 2200

Values from paper PMC3829359
